# System: M14 melanoma
# test-summary: NCI-60 one-dose screen, 48 h (100 = growth as untreated, 0 = no growth, -100 = all killed)
# condition-info: 10 µM unless noted
This is part of a sample that, as a whole, favours compounds with a hit. Of some 83,000 tested, about 20% had one in any assay.
Would you mind telling me the reported growth of each entry?
Write the number in % without appending the unit.

Lookup: Identify measured growth associated with CN(C)c1ccc(Nc2cc(-c3cccc(OC(F)(F)F)c3)nc3ccc(N4CCCC4)cc23)cc1
Found: -76.3

Lookup: Identify measured growth associated with CCCCCCC1(C)NCCO1 (stereo not given)
Found: 104

Lookup: Identify measured growth associated with COC(=O)c1c2c(c[n+]([O-])c1C)C(=O)C(NCc1ccccc1)=CC2=O
Found: -77.8

Lookup: Identify measured growth associated with CCOC(=O)CNP(=O)(OC[C@@H](Cc1ccccc1)NC(=O)c1cc2ccccc2s1)Oc1ccccc1 (stereo not given in full)
Found: 59.6

Lookup: Identify measured growth associated with O=C1c2c(c3c4ccc(Br)cc4oc3c3[nH]c4ccccc4c23)C(=O)N1O
Found: 30.9

###

# System: SF-295 CNS
# test-summary: NCI-60 one-dose screen, 48 h (100 = growth as untreated, 0 = no growth, -100 = all killed)
# condition-info: 10 µM unless noted
Compounds without any hit were thinned out: in the full panel of roughly 83,000, 20% have a hit.
reported-property: growth (%)
Write the number in % without appending the unit.

Lookup: Identify measured growth associated with CCOC(=O)C1=NN(c2ccccc2)C(=O)/C1=C\N1C(=O)CC(=O)NC1=S
Found: 103

Lookup: Identify measured growth associated with O=C1Nc2ccc(Br)cc2/C1=N/c1n[nH]c(=S)s1
Found: 101

Lookup: Identify measured growth associated with C/C(=C(/c1ccc(Cl)cc1)c1ccc(OCCN2CCCC2)cc1)c1ccc(Cl)cc1
Found: 100

Lookup: Identify measured growth associated with CCCCCOc1ccc(C(=O)/C(Br)=C/C(=O)O)cc1
Found: 112

Lookup: Identify measured growth associated with Clc1ccc(Nc2nnc(COc3ccccc3)c3ccccc23)cc1
Found: -1.11

Lookup: Identify measured growth associated with CCOC(=O)c1[nH]c(=O)c2c(C)nc(-c3ccccc3)cc2c1O
Found: 110

Lookup: Identify measured growth associated with O=C(Cn1c(=O)sc2nc3ccccc3nc21)Nc1ncc(Cc2cccc(Cl)c2Cl)s1
Found: 102

Lookup: Identify measured growth associated with O=C(O)c1ccc(-n2cc(/C=N/Nc3ccc(F)cc3)c(-c3cc4ccccc4oc3=O)n2)cc1
Found: 72.1

Lookup: Identify measured growth associated with Cn1cccc1C(=O)C1C(c2cccc([N+](=O)[O-])c2)C2C3CCCCC3CN2C12C(=O)Nc1ccc(Cl)cc12 (centres undefined)
Found: 82.3

Lookup: Identify measured growth associated with CN[C@]12CC3(C=CC(=O)C=C3)O[C@@]1(Cc1ccc(OC)cc1)N(C)C(=O)N2
Found: 103

Lookup: Identify measured growth associated with O=C1/C(=C/c2ccc(F)cc2)COc2ccc(O)c(O)c21
Found: 75

Lookup: Identify measured growth associated with N#Cc1cnc(NCCc2ccncc2)nc1-n1cnc2ccccc21
Found: 75.1

Lookup: Identify measured growth associated with COc1ccc2cc(-c3ccc(NC(C)=O)c(=O)o3)ccc2c1
Found: 100

Lookup: Identify measured growth associated with C#Cc1ccc(NC(=O)c2ccc(/C=C/C(=O)c3nccn3C)cc2)cc1
Found: -91.2

Lookup: Identify measured growth associated with Cn1cc(-c2nc(-c3c[nH]c4ccncc34)cs2)c2ccccc21
Found: 65.5

Lookup: Identify measured growth associated with CCCCN[C@H]1CC[C@@]2(C)[C@@H](CC[C@@]3(C)[C@H]2[C@H](O)C[C@H]2/C(=C(\CCC=C(C)C)C(=O)OC)[C@@H](OC(C)=O)C[C@@]23C)[C@@H]1C
Found: 99

Lookup: Identify measured growth associated with CS(=O)(=O)C1=CN(CCO)C(=O)N2CCCN=C12
Found: 105

Lookup: Identify measured growth associated with C=C(C)[C@@H]1CC[C@]2(C(=O)N3CCN(C)CC3)CC[C@]3(C)[C@H](CC[C@@H]4[C@@]5(C)CC(=C/c6ccncc6)/C(=N/O)C(C)(C)[C@@H]5CC[C@]43C)[C@@H]12
Found: 91.6

Lookup: Identify measured growth associated with N#Cc1c(-c2cccs2)cc(-c2cccnc2)[nH]c1=O
Found: 101

Ref: PubChem BioAssay (NCI)
